Test system: K562
test.protocol: NCI tumour cell line growth inhibition, 48 h
Calls of active or inactive are those of the source. No stated cut-off is given here; in the data, active = GI50 up to about 1.1 µM and inactive = higher.
# GI50 per entry

>  <compound>
NCCCCC(N)C(=O)NCCNc1ccc(NCCNC(=O)C(N)CCCCN)c2c1C(=O)c1ccccc1C2=O (centres undefined)

>  <study.system>
K562

>  <reported.result>
> 33.4 µM (inactive)

$$$$
>  <compound>
NC(=O)CC(N)C(N)=O (centres undefined)

>  <study.system>
K562

>  <reported.result>
> 100 µM (inactive)

$$$$
>  <compound>
Cc1nc(-c2ccc(/N=C/c3ccc(N(CCOS(C)(=O)=O)CCOS(C)(=O)=O)cc3C)cc2)cs1

>  <study.system>
K562

>  <reported.result>
26.5 µM (inactive)

$$$$
>  <compound>
CC1C(=O)OC2CC[N+]3(CC(=O)c4ccc(Br)cc4)CC=C(COC(=O)C(C)(O)C1(C)O)C23 (centres undefined)

>  <study.system>
K562

>  <reported.result>
> 375 µM (inactive)

$$$$
>  <compound>
COc1ccc(C2C(=O)c3c(OC)cc(OC)cc3OC2c2cccnc2)cc1 (centres undefined)

>  <study.system>
K562

>  <reported.result>
59.6 µM (inactive)

$$$$

Query: Please give the measured GI50 for this compound: COC(=O)c1c(O)ccc2c1c1c(n2CCc2ccc(OC)c(OC)c2)C(=O)c2ccccc2C1=O
Result: 20.5 µM (inactive)

Query: Please give the measured GI50 for this compound: CN(C)C(=S)/N=c1\ss/c(=N\C(=S)N(C)C)n1-c1ccc2c(c1)OCO2
Result: 4.86 µM (inactive)

Query: Please give the measured GI50 for this compound: O=C1NC(=O)C2(CCc3ccc(N(CCCl)CCCl)cc32)N1 (centres undefined)
Result: 19.8 µM (inactive)

Query: Please give the measured GI50 for this compound: O=C(N/C(=C\c1cccc([N+](=O)[O-])c1)c1nc2c(O)nc(S)nc2[nH]1)c1ccccc1
Result: > 100 µM (inactive)
